Test system: phospho-p90 RSK (RSK1 Thr359/Ser363) in A375 (Braf V600E) cells
experiment: Phospho-p90 RSK ELISA using A375 (Braf V600E) cells
Assay type: cell-based
assayConditions: Homo sapiens, A-375, 2 hours compound treatment, read-out: Cellular Phospho-p90RSK IC50
Procedure: In preparation for the assay, an ELISA plate with the pre-coated goat anti-mouse antibody (Thermo Scientific) was treated with a mouse anti-human RSK1 antibody (monoclonal, Invitrogen) at 1:800 dilution (150 ng/well) in PBS, and the plate was placed on a plate shaker at 4° C. overnight. […] Finally, 100 μL of TMB stop solution (Thermo Scientific) was added to each well and the absorbance is measured at 450 nm on a Tecan plate reader.
observable: IC50

Previously resolved entries follow.
Task: Reported IC50 for `Cc1cc(-c2n[nH]c3cc4[nH]c(=O)n(Cc5ccccc5)c4cc23)ccn1` : what is it?
Result: 250 to 1000 nM

Task: Given the compound CCC(c1ccccc1)c1cc2cc3c(-c4ccnc(C)c4)n[nH]c3cc2[nH]c1=O (stereo not shown) , what is its reported IC50?
Result: ≤ 250 nM

Task: Would you kindly share the measured IC50 for `Cc1cc(-c2n[nH]c3cc4c(cc23)CN([C@H](C)c2cccc(Cl)c2)C(=O)N4)ccn1` ?
Result: ≤ 250 nM

More entries:
Task: Look at this compound and give its reported IC50. `Cc1ncc(-c2n[nH]c3cc4c(cc23)CN([C@@H]2CCCN(Cc3ccc(F)cc3F)C2)C(=O)N4)cn1`
Result: ≤ 250 nM

Where do these numbers come from? They come from patent US10301317B2.
